- measured target: HLA-A*31:01
- experimental protocol: IEDB peptide-MHC binding, purified MHC/competitive/fluorescence; filed as Kd, often an IC50 or EC50 that approximates it; bounds were set here for any values at or beyond the usual limits of such assays
- recorded conditions: source organism: Reston ebolavirus
readout label: Kd (nM)

>>> df
    seq_text  measured_target  readout_label  test_result
0  RTYSLLNRK      HLA-A*31:01             Kd         15.5

---

- measured target: HLA-B*57:01
- experimental protocol: IEDB peptide-MHC binding, purified MHC/direct/fluorescence; filed as Kd, often an IC50 or EC50 that approximates it; bounds were set here for any values at or beyond the usual limits of such assays
- recorded conditions: source organism: Bacillus anthracis str. Sterne
pKd: −log10 of the molar value.
readout label: pKd

In [3]: df
Out[3]:
    seq_text  test_result
0  TTYVYTLPV       ≤ 4.70

---

- measured target: HLA-A*24:02
- experimental protocol: IEDB peptide-MHC binding, purified MHC/competitive/radioactivity; filed as Kd, often an IC50 or EC50 that approximates it; bounds were set here for any values at or beyond the usual limits of such assays
- recorded conditions: source organism: Mammarenavirus guanaritoense
readout label: Kd (µM)

In [3]: df
Out[3]:
    seq_text  readout_label  units_symbol  test_result
0  QQICSNFKI             Kd            µM         13.1

---

- measured target: HLA-B*46:01
- experimental protocol: IEDB peptide-MHC binding, purified MHC/competitive/fluorescence; filed as Kd, often an IC50 or EC50 that approximates it; bounds were set here for any values at or beyond the usual limits of such assays
- recorded conditions: source organism: Influenza A virus (A/ruddy turnstone/Delaware/67/1998(H12N4))
readout label: Kd

In [3]: df
Out[3]:
    seq_text  readout_label  test_result
0  IVFMWAIHH             Kd      ≥ 20 µM

---

- measured target: HLA-B*44:02
- experimental protocol: IEDB peptide-MHC binding, purified MHC/direct/fluorescence; filed as Kd, often an IC50 or EC50 that approximates it; bounds were set here for any values at or beyond the usual limits of such assays
- recorded conditions: source organism: Francisella tularensis subsp. tularensis FSC033
readout label: Kd

    seq_text  readout_label  test_result
0  NTIEELSGY             Kd      ≥ 20 µM

---

- measured target: HLA-B*18:01
- experimental protocol: IEDB peptide-MHC binding, purified MHC/competitive/fluorescence; filed as Kd, often an IC50 or EC50 that approximates it; bounds were set here for any values at or beyond the usual limits of such assays
- recorded conditions: source organism: Cryptosporidium parvum Iowa II
pKd: −log10 of the molar value.
readout label: pKd

>>> df
    seq_text  measured_target  test_result
0  DLAQDPMLI      HLA-B*18:01       ≤ 4.70

---

- measured target: HLA-A*02:01
- experimental protocol: IEDB peptide-MHC binding, purified MHC/competitive/fluorescence; filed as Kd, often an IC50 or EC50 that approximates it; bounds were set here for any values at or beyond the usual limits of such assays
- recorded conditions: source organism: Vaccinia virus WR
readout label: Kd

In [3]: df
Out[3]:
    seq_text  readout_label  test_result
0  YLYQPCDLL             Kd       0.2 nM

---

- measured target: HLA-A*23:01
- experimental protocol: IEDB peptide-MHC binding, purified MHC/competitive/radioactivity; filed as Kd, often an IC50 or EC50 that approximates it; bounds were set here for any values at or beyond the usual limits of such assays
- recorded conditions: source organism: Dengue virus 2 Jamaica/1409/1983
pKd: −log10 of the molar value.
readout label: pKd

>>> print(df.to_string())
     seq_text  test_result
0  YWVSNASGNI         5.88

---

- measured target: HLA-A*02:03
- experimental protocol: IEDB peptide-MHC binding, purified MHC/competitive/radioactivity; filed as Kd, often an IC50 or EC50 that approximates it; bounds were set here for any values at or beyond the usual limits of such assays
- recorded conditions: source organism: Vaccinia virus Copenhagen
pKd: −log10 of the molar value.
readout label: pKd

>>> print(df.to_string())
    seq_text  test_result
0  LMDSIFVST         6.63

---

- measured target: HLA-B*53:01
- experimental protocol: IEDB peptide-MHC binding, purified MHC/competitive/fluorescence; bounds were set here for any values at or beyond the usual limits of such assays
- recorded conditions: source organism: Human herpesvirus 4 type 2
pIC50: −log10 of the molar value.
readout label: pIC50

In [3]: df
Out[3]:
    seq_text  test_result
0  QAYAAPQLF         7.15

---

- measured target: HLA-B*15:17
- experimental protocol: IEDB peptide-MHC binding, purified MHC/direct/fluorescence; filed as Kd, often an IC50 or EC50 that approximates it; bounds were set here for any values at or beyond the usual limits of such assays
- recorded conditions: source organism: Brucella abortus 2308
readout label: Kd

In [3]: df
Out[3]:
    seq_text  measured_target  readout_label  test_result
0  RVYKNYDPR      HLA-B*15:17             Kd      ≥ 20 µM

---

- measured target: HLA-B*40:01
- experimental protocol: IEDB peptide-MHC binding, purified MHC/competitive/radioactivity; filed as Kd, often an IC50 or EC50 that approximates it; bounds were set here for any values at or beyond the usual limits of such assays
- recorded conditions: source organism: Dengue virus 3 Martinique/1243/1999
readout label: Kd

    seq_text  measured_target  test_result
0  LEKASLIEV      HLA-B*40:01      1.03 µM
1  EEMFKKRNL      HLA-B*40:01      6.31 µM

---

- measured target: HLA-A*02:01
- experimental protocol: IEDB peptide-MHC binding, purified MHC/direct/fluorescence; filed as Kd, often an IC50 or EC50 that approximates it; bounds were set here for any values at or beyond the usual limits of such assays
- recorded conditions: source organism: Brucella abortus 2308
pKd: −log10 of the molar value.
readout label: pKd

    seq_text  test_result
0  RVYKNYDPR       ≤ 4.70

---

- measured target: HLA-B*57:01
- experimental protocol: IEDB peptide-MHC binding, purified MHC/direct/fluorescence; filed as Kd, often an IC50 or EC50 that approximates it; bounds were set here for any values at or beyond the usual limits of such assays
- recorded conditions: source organism: Francisella tularensis subsp. holarctica LVS
pKd: −log10 of the molar value.
readout label: pKd

    seq_text  readout_label  test_result
0  REIGDISYL            pKd       ≤ 4.70

---

- measured target: HLA-A*01:01
- experimental protocol: IEDB peptide-MHC binding, purified MHC/competitive/radioactivity; filed as Kd, often an IC50 or EC50 that approximates it; bounds were set here for any values at or beyond the usual limits of such assays
- recorded conditions: source organism: Dengue virus 3 Martinique/1243/1999
Each record here notes measured Kd.
readout label: Kd (µM)

>>> print(df.to_string())
     seq_text  units_symbol  test_result
0  ETENILTVLL            µM         3.84
1  MTIDLDPVIY            µM         2.99
2   VTTWENVPY            µM         0.59

---

- measured target: HLA-A*68:01
- experimental protocol: IEDB peptide-MHC binding, purified MHC/competitive/radioactivity; filed as Kd, often an IC50 or EC50 that approximates it; bounds were set here for any values at or beyond the usual limits of such assays
- recorded conditions: source organism: Vaccinia virus WR
Listed next: entries and their corresponding Kd.
readout label: Kd (nM)

In [3]: df
Out[3]:
     seq_text  readout_label  modifier_sign  test_result
0  GVSYEVFDDY             Kd              ≥        70200
1   EVGSIRCVK             Kd              =         1.19
2  VSSLVKNVNK             Kd              =         3360
3   AIITPVVFY             Kd              =         1470
4  DFSKSTSPTR             Kd              =          112

---

- measured target: HLA-B*07:02
- experimental protocol: IEDB peptide-MHC binding, purified MHC/direct/fluorescence; filed as Kd, often an IC50 or EC50 that approximates it; bounds were set here for any values at or beyond the usual limits of such assays
- recorded conditions: source organism: Influenza A virus (A/egret/Hong Kong/757.3/2002(H5N1))
readout label: Kd

In [3]: df
Out[3]:
    seq_text  test_result
0  EEFTMVGRR      ≥ 20 µM
